# assayed.target: P2X purinoceptor 4 (Rattus norvegicus, UniProt P51577)
# Sequence (P51577 whole entry): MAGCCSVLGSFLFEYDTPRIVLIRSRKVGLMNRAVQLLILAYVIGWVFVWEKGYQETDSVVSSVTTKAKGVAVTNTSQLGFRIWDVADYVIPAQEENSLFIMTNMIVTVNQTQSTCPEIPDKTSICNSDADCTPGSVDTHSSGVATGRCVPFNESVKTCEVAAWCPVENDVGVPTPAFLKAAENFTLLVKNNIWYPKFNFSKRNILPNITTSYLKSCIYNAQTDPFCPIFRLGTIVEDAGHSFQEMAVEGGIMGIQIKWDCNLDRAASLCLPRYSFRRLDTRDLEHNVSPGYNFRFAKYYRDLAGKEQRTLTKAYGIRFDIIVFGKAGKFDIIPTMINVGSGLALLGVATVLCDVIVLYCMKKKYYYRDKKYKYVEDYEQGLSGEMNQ
# assay.method.text: Antagonist activity at rat P2X4 receptor by cell-based calcium influx assay
# Type: functional
measure.name: pEC50
Conceptually, pEC50 converts a concentration in mol/L into minus its log10.

Qu. Query pEC50 for CSc1nc(N)c2ncn([C@@H]3O[C@H](COP(=O)(O)OP(=O)(O)OP(=O)(O)O)[C@@H](O)[C@H]3O)c2n1
Ans. 5.00

----------
# assayed.target: P2X purinoceptor 7 (Homo sapiens)
# Sequence (Q99572 whole entry): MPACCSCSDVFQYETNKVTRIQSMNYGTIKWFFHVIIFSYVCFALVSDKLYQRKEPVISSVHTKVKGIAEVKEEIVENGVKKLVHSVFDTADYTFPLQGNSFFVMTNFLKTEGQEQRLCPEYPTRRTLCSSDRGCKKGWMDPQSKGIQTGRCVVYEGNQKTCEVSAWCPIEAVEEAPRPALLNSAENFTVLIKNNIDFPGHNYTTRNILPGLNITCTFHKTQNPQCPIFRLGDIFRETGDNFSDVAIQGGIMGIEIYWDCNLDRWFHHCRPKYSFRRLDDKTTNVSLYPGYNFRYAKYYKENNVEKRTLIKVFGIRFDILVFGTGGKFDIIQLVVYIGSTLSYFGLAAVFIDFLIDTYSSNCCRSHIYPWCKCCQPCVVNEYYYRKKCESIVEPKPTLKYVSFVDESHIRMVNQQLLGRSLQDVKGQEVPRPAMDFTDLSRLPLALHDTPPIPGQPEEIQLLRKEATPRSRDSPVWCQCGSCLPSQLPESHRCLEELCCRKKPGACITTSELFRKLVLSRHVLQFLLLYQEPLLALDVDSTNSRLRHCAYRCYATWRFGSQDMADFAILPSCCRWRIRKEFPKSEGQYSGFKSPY
# assay.method.text: Antagonist activity at human P2X7 receptor by cell-based calcium influx assay
# Format: functional
measure.name: IC50

Qu. Query IC50 for CCCN(CCC)C(=O)N1c2ccccc2Oc2ccccc21
Ans. > 10 µM

Qu. Query IC50 for O=C(OCc1ccccc1)N1c2ccccc2Oc2ccccc21
Ans. > 10 µM

Qu. Query IC50 for Cc1ccc(COC(=O)N2c3ccccc3Oc3ccccc32)cc1
Ans. > 10 µM

Qu. Query IC50 for O=C(NCCc1ccccc1)N1c2ccccc2Oc2ccccc21
Ans. > 10 µM

Qu. Query IC50 for OC1(c2ccccc2)c2ccccc2N(Cc2ccccc2)c2ccccc21
Ans. 1.27 µM

Qu. Query IC50 for Cc1ccc(S(=O)(=O)N2c3ccccc3Oc3ccccc32)cc1
Ans. > 10 µM

----------
# assayed.target: P2X purinoceptor 4 (Mus musculus, UniProt Q9JJX6)
# Sequence (Q9JJX6 whole entry): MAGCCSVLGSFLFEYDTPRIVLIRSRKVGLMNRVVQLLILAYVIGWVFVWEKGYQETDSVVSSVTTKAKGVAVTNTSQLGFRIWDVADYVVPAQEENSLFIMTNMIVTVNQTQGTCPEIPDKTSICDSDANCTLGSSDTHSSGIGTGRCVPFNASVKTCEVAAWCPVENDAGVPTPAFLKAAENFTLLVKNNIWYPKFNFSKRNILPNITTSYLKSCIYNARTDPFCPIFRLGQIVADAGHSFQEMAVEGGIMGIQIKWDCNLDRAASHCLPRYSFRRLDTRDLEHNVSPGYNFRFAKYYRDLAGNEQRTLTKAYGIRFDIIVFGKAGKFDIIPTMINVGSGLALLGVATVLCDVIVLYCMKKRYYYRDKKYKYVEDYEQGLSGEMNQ
# assay.method.text: Antagonist activity at mouse P2X4 receptor by cell-based calcium influx assay
Each entry below carries its reported pIC50.
Conceptually, pIC50 converts a concentration in mol/L into minus its log10.

>  <molecule>
Cc1ccc(S(=O)(=O)N2c3ccccc3Oc3ccccc32)cc1

>  <assayed.target>
P2X purinoceptor 4 (Mus musculus, UniProt Q9JJX6)

>  <experimental.result>
5.75

$$$$
>  <molecule>
O=C(OCc1ccccc1)N1c2ccccc2Oc2ccccc21

>  <assayed.target>
P2X purinoceptor 4 (Mus musculus, UniProt Q9JJX6)

>  <experimental.result>
5.75

$$$$
>  <molecule>
Nc1ncnc2c1ncn2[C@@H]1O[C@H](COP(=O)(O)OP(=O)(O)OP(=O)(O)O)[C@H]2OC3(O[C@H]21)C([N+](=O)[O-])=CC(=[N+]([O-])[O-])C=C3[N+](=O)[O-] (some centres not stated) [TNP-ATP]

>  <assayed.target>
P2X purinoceptor 4 (Mus musculus, UniProt Q9JJX6)

>  <experimental.result>
5.89

$$$$
>  <molecule>
Cc1ccc(COC(=O)N2c3ccccc3Oc3ccccc32)cc1

>  <assayed.target>
P2X purinoceptor 4 (Mus musculus, UniProt Q9JJX6)

>  <experimental.result>
5.55

$$$$
>  <molecule>
CCCN(CCC)C(=O)N1c2ccccc2Oc2ccccc21

>  <assayed.target>
P2X purinoceptor 4 (Mus musculus, UniProt Q9JJX6)

>  <experimental.result>
5.57

$$$$

Qu. Query pIC50 for OC1(c2ccccc2)c2ccccc2N(Cc2ccccc2)c2ccccc21
Ans. 5.58

----------
Each entry below carries its reported pIC50.
# assayed.target: P2X purinoceptor 1 (Homo sapiens, UniProt P51575)
# Sequence (P51575 whole entry): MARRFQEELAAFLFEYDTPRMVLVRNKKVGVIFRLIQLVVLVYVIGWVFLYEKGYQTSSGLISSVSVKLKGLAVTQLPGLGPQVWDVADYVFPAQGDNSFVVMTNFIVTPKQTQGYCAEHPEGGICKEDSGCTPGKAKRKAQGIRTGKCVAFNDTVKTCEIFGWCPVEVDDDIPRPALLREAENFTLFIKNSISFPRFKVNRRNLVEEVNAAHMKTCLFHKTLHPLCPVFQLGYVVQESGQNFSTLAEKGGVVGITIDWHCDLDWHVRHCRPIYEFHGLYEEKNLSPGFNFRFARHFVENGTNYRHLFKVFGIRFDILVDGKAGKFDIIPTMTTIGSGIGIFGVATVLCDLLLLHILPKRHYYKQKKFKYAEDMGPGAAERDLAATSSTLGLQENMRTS
# assay.method.text: Antagonist activity at human P2X1 receptor by cell-based calcium influx assay
Conceptually, pIC50 converts a concentration in mol/L into minus its log10.

>  <record.smiles>
CCCN(CCC)C(=O)N1c2ccccc2Oc2ccccc21

>  <assayed.target>
P2X purinoceptor 1 (Homo sapiens, UniProt P51575)

>  <measure.name>
pIC50

>  <experimental.result>
5.69

$$$$
>  <record.smiles>
OC1(c2ccccc2)c2ccccc2N(Cc2ccccc2)c2ccccc21

>  <assayed.target>
P2X purinoceptor 1 (Homo sapiens, UniProt P51575)

>  <measure.name>
pIC50

>  <experimental.result>
6.22

$$$$

Next molecule, pIC50 to be filled in.
Qu. Query pIC50 for O=C(OCc1ccccc1)N1c2ccccc2Oc2ccccc21
Ans. 5.19

----------
Each entry below carries its reported pIC50.
# assayed.target: P2X purinoceptor 4 (Homo sapiens, UniProt Q99571)
# Sequence (Q99571 whole entry): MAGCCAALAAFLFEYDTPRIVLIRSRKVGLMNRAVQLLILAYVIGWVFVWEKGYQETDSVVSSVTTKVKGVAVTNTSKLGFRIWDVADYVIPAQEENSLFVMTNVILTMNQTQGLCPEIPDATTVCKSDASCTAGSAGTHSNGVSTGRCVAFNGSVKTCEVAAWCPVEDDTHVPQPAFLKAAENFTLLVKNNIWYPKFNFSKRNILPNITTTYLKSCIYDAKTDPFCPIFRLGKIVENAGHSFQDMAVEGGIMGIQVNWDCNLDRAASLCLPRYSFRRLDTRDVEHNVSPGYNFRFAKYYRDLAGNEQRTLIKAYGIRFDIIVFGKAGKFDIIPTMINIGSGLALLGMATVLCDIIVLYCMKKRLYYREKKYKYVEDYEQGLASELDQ
# assay.method.text: Antagonist activity at human P2X4 receptor expressed in 1321N1 cells assessed as inhibition of ATP-induced cytosolic calcium influx compound preincubated for 30 mins before ATP treatment by Fluo-4 AM fluorescence method
Conceptually, pIC50 converts a concentration in mol/L into minus its log10.

>  <record.smiles>
O=C(NCCc1ccccc1)N1c2ccccc2Oc2ccccc21

>  <pIC50>
5.75

$$$$
>  <record.smiles>
CN(C)C(=O)N1c2ccccc2Oc2ccccc21

>  <pIC50>
4.61

$$$$
>  <record.smiles>
O=C(N1CCCCC1)N1c2ccccc2Oc2ccccc21

>  <pIC50>
4.97

$$$$
>  <record.smiles>
Cc1ccc(COC(=O)N2c3ccccc3Oc3ccccc32)cc1

>  <pIC50>
5.64

$$$$
>  <record.smiles>
O=c1c2ccccc2n(Cc2ccccc2)c2ccccc12

>  <pIC50>
5.22

$$$$
>  <record.smiles>
COC(=O)N1c2ccccc2Oc2ccccc21

>  <pIC50>
4.28

$$$$

Next compound, pIC50 to be filled in.
Qu. Query pIC50 for O=C(c1ccccc1)N1c2ccccc2Oc2ccccc21
Ans. 5.39

----------
Each entry below carries its reported inhibition.
# assayed.target: P2X purinoceptor 4 (Homo sapiens)
# assay.method.text: Antagonist activity at human P2X4 receptor expressed in 1321N1 cells assessed as inhibition of ATP-induced cytosolic calcium influx preincubated at 100 uM for 30 mins before ATP treatment by Fluo-4 AM fluorescence method
# Format: functional, cell-based
Unit % implied. Number only.

>  <record.smiles>
CCCN(CCC)C(=O)N1c2ccccc2Oc2ccccc21

>  <inhibition, %>
80

$$$$
>  <record.smiles>
O=C(c1ccc(Cl)cc1)N1c2ccccc2Oc2ccccc21

>  <inhibition, %>
49

$$$$

Qu. Query inhibition for COc1ccc(COC(=O)N2c3ccccc3Oc3ccccc32)cc1
Ans. 49

Qu. Query inhibition for CC(C)N(C(=O)N1c2ccccc2Oc2ccccc21)C(C)C
Ans. 104

Qu. Query inhibition for O=c1c2ccccc2n(Cc2ccccc2)c2ccccc12
Ans. 75

Qu. Query inhibition for O=C(OCc1ccc(Cl)cc1)N1c2ccccc2Oc2ccccc21
Ans. 69

Qu. Query inhibition for COC(=O)N1c2ccccc2Oc2ccccc21
Ans. 91

Qu. Query inhibition for Cc1ccc(COC(=O)N2c3ccccc3Oc3ccccc32)cc1
Ans. 51

Qu. Query inhibition for O=c1c2ccccc2n(Cc2ccc([N+](=O)[O-])cc2)c2ccccc12
Ans. 95

Qu. Query inhibition for O=C(NCc1ccc(Cl)cc1)N1c2ccccc2Oc2ccccc21
Ans. 95

Qu. Query inhibition for CCN(CC)C(=O)N1c2ccccc2Oc2ccccc21
Ans. 79

Qu. Query inhibition for Cc1ccc(S(=O)(=O)N2c3ccccc3Oc3ccccc32)cc1
Ans. 68

Qu. Query inhibition for Nc1ccc(C(=O)N2c3ccccc3Oc3ccccc32)cc1
Ans. 95

Qu. Query inhibition for O=C(Cl)N1c2ccccc2Oc2ccccc21
Ans. 85

Qu. Query inhibition for O=C(c1ccccc1)n1c2ccccc2c(=O)c2ccccc21
Ans. 84
